// provenance: PubChem BioAssay

Quick reference for composite z-score among some molecules
Test system: wheat germ agglutinin (Triticum aestivum), Alexa647-labelled
Assay: Alexa647-WGA lectin binding to printed small molecules – biochemical, small-molecule microarray, 635/667 nm fluorescence, artefact control for SMM control-protein annotation, profiling panel (AID 1140);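 further: score merges 667 nm feature emission with signal to noise over triplicate slides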
Settings: WGA-A647 binding, 635 nm fluorescence, higher = more signal

| smiles.repr | composite z-score |
| --- | --- |
| COc1ccc(C(=O)Nc2ccc3c(c2)[C@]2(O[C@@H](CCO)[C@H]([Si](C)(C)c4ccc(OC)cc4)[C@H]2C)C(=O)N3Cc2ccccc2)cc1 | 0.161 |
| CCCNC(=O)[C@@H]1c2ccccc2C(=O)N(CC23CC4CC(CC(C4)C2)C3)[C@H]1c1ccc(CO)cc1 | 0.562 |
| CCCCC(=C=CC[C@H](O)c1ccccc1OCCO)C[C@H](O)c1ccccn1 | 0.458 |
| COc1ccc([Si](C)(C)[C@@H]2[C@@H](CC(=O)N(CCO)Cc3ccccc3)O[C@]3(C(=O)N(Cc4ccc(N5CCOC5=O)cc4)c4ccccc43)[C@H]2C)cc1 | 0.415 |

====

Assay: calcein-AM signal in unstimulated myeloma cells – cell-based, calcein-AM fluorescence, 48 h, PK04 Diversity Set, profiling panel (AID 1166);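 further: cells grown under basal conditions without added stimulus; test concentration not given here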
Conditions: RPMI8226 myeloma viability, higher = more signal
measurement.name: z-score

| molecule | measurement.name | result |
| --- | --- | --- |
| C=CCC(OC(C)=O)[C@@H]1[C@@H](N(Cc2ccc(-c3ccccc3)cc2)C(=O)Cc2ccc(OC)cc2)c2cc(OCCCO)ccc2N1C(=O)c1ccc(-c2ccccc2)cc1 (stereo partly drawn) | z-score | 0.368 |
| CCCCC(CC)C(O)C1C=CC2C(=O)NC(=O)C2N1Nc1ccccn1 (stereo not drawn) | z-score | 0.581 |
| [N-]=[N+]=Nc1ccccc1C[C@]1(C(=O)NCCN2CCOCC2)N=C(c2ccc(OCCCO)cc2)O[C@H]1c1ccccc1N=[N+]=[N-] | z-score | -1.2 |
| C/C=C/[C@@H](CCn1cc([C@H](O)c2ccccc2)nn1)[Si](C)(C)c1ccc(OC)cc1 | z-score | -3.1 |
| O=c1c2ccc(Br)cc2nc(-c2ccccc2)n1Cc1cccc(O)c1 | z-score | 0.195 |
| COCCCNC(=O)[C@@H]1c2ccccc2C(=O)N(c2ccc(C)cn2)[C@H]1c1ccc(CO)cc1 | z-score | -0.57 |
| CCCCC(=C=CC[C@H](O)c1cccc(OCCO)c1)C[C@H](O)COCc1ccccc1 | z-score | -0.63 |
| CCN(CC)c1ccc(N2CC=CC34O[C@@H]5/C=C\CCCOC(=O)C5[C@H]3C(=O)N(CCCCCCO)[C@@H]4C2=O)cc1 (stereo partly drawn) | z-score | 0.0026 |

====

Listed next: entries and their corresponding z-score.
Test: compound effects on hepatocellular carcinoma cell viability – HepG2, calcein-AM fluorescence, 48 h, basal, profiling panel (AID 1164); further: test concentration not given here
Conditions: higher = more signal
measurement.name: z-score

| molecule | measurement.name | result |
| --- | --- | --- |
| COc1ccc([Si](C)(C)[C@@H]2[C@@H](CCO)O[C@]3(C(=O)N(Cc4ccccc4)c4ccc(N5C(=O)COc6ccccc65)cc43)[C@H]2C)cc1 | z-score | -1.08 |
| C=C(C)[C@@H]1CC=C(C(O)C2C=CC3C(=O)N(C4CCCCC4)C(=O)C3N2Nc2ccc(OC)cc2)CC1 (stereo partly drawn) | z-score | 0.319 |
| CN(C)C(=O)[C@@]1(CCC(=O)OC(C)(C)C)N=C(c2ccc(OCCCO)cc2)O[C@H]1c1ccccc1N=[N+]=[N-] | z-score | -0.34 |
| CCCCC(CC)C(O)C1C=CC2C(=O)NC(=O)C2N1Nc1ccccn1 (stereo not drawn) | z-score | 1.12 |
| O=c1c2ccc(Br)cc2nc(-c2ccccc2)n1Cc1cccc(O)c1 | z-score | 0.196 |
| C=CC[C@]1(C(=O)NCC(O)CO)N=C(c2ccc(OCCCO)cc2)O[C@H]1c1ccccc1N=[N+]=[N-] (stereo partly drawn) | z-score | -0.735 |
| COC(=O)[C@@]1(Cc2ccccc2)[C@H]2c3cc(C(=O)N4CCCC4)n(CCO)c3C[C@H]2CN1C(=O)c1ccccc1 | z-score | 0.345 |
| C=CC[C@@]1(C(=O)NCC(O)CO)N=C(c2ccc(OCCCO)cc2)O[C@@H]1c1ccccc1 (stereo partly drawn) | z-score | -0.412 |
| COCCCNC(=O)[C@@]1(Cc2ccccc2I)c2ccccc2C(=O)N(Cc2ccccc2Cl)[C@H]1c1ccc(CO)cc1 | z-score | 0.9 |
| COc1ccc([Si](C)(C)[C@H]2[C@H](CCn3cc(CCO)nn3)O[C@@]3(C(=O)N(Cc4cccc(N5C(=O)c6cccc7cccc5c67)c4)c4ccccc43)[C@@H]2C)cc1 | z-score | -4.39 |
| COc1ccc([Si](C)(C)[C@@H]2[C@@H](CCO)O[C@]3(C(=O)N(Cc4ccc(N5C(=O)c6ccccc6Oc6ccccc65)cc4)c4ccccc43)[C@H]2C)cc1 | z-score | -3.56 |
| CCCNC(=O)[C@@]1(Sc2ccc(C)cc2)CC(=O)N(Cc2ccccc2)[C@@H]1c1ccc(CO)cc1I | z-score | 0.0653 |
| CC(=O)NCCCC[C@@H]1NC(=O)[C@H]2C[C@@H](C(=O)NCCCCCN)[C@@H](c3cccc(OCCO)c3)N2C1=O | z-score | 0.491 |
| CC[C@@H]1[C@@H]2C3C(=O)N(CC)C(=O)C3CC(=O)[C@@H]2[C@H](c2ccc(C)cc2)N1S(=O)(=O)c1ccc(C)cc1 (stereo partly drawn) | z-score | 0.769 |
| CCC[C@@H]1C[C@@]1(CCC)[C@@H](NC(=O)c1cccs1)c1ccc(Cl)cc1 | z-score | -0.892 |
| CN(C)CCCNC(=O)[C@@]1(Cc2ccccc2I)c2ccccc2C(=O)N(Cc2ccccc2Cl)[C@H]1c1ccc(CO)cc1 | z-score | -5.11 |
| [N-]=[N+]=NCc1ccccc1C[C@]1(C(=O)NCCN2CCOCC2)COC(c2ccc(OCCCO)cc2)=N1 | z-score | 0.652 |
| O=C(O)[C@]1(CCS(=O)(=O)c2ccccc2)N=C(c2ccc(OCCCO)cc2)O[C@@H]1c1ccccc1 | z-score | 0.296 |
| COc1ccc(CCNC(=O)[C@@H]2c3ccccc3C(=O)N(Cc3ccccc3)[C@H]2c2ccc(CO)cc2)cc1 | z-score | 2.44 |
| COCCOC(=O)N1C(=O)[C@@]2(c3cc(C#Cc4ccc(OC)cc4)ccc31)[C@H](C(=O)N1CCc3cc(OC)c(OC)cc3C1)[C@H]1C(=O)O[C@H](c3ccccc3)[C@H](c3ccccc3)N1[C@@H]2c1ccc(O)cc1 | z-score | 0.97 |
| CCOC(=O)C1=CC[C@@H](c2ccc(N(CC)CC)cc2)N(S(=O)(=O)c2ccc(C)cc2)[C@H]1c1ccc([N+](=O)[O-])cc1 | z-score | 0.203 |
| COCCOC(=O)N1C(=O)[C@@]2(c3ccccc31)[C@H](c1ccccc1OCCO)N1[C@H](c3ccccc3)[C@H](c3ccccc3)OC(=O)[C@H]1[C@@H]2C(=O)N1CCc2cc(OC)c(OC)cc2C1 | z-score | -0.628 |
| CN(C)C(=O)[C@@]1(Cc2ccccc2N=[N+]=[N-])N=C(c2ccc(OCCCO)cc2)O[C@H]1c1ccccc1N=[N+]=[N-] | z-score | -1.38 |
| O=C1O[C@@H](c2ccccc2)[C@@H](c2ccccc2)N2[C@@H](c3ccc(O)cc3)[C@]3(C(=O)Nc4ccc(C#CC5(O)CCCCCC5)cc43)[C@@H](C(=O)N3CCN(c4ncccn4)CC3)[C@H]12 | z-score | -0.458 |
| CC1C=C(CCCO)C=C(C(=O)OCCS(C)(=O)=O)C(C(=O)OCCS(C)(=O)=O)=CN1Cc1cccc(OC(F)(F)F)c1 (stereo not drawn) | z-score | 1.23 |
| O=C1C2C=CC(C(O)c3ccccn3)N(Nc3ccccc3)C2C(=O)N1c1ccccc1 (stereo not drawn) | z-score | 0.593 |
| C=CCNC(=O)[C@@H]1[C@H]2C(=O)O[C@H](c3ccccc3)[C@H](c3ccccc3)N2[C@H](c2ccc(O)cc2)[C@@]12C(=O)Nc1ccc(C#CCCO)cc12 | z-score | -0.168 |
| C[C@H]1ON(c2ccccc2)[C@@H](c2ccccc2)[C@@H]1C(=O)N1C(=O)OC[C@@H]1c1ccccc1 | z-score | -0.941 |
